molecular target: T1, 小鼠FOLR1 (小鼠 (mouse), UniProt P35846 25-232, limits assumed); assay: ELISA, coated FOLR1 of each species 1 μg/mL, VHH-hFc titrated from 2 μg/mL, goat anti-human IgG-HRP
T1 construct: also called mouse FOLR1
T1 sequence (P35846 25-232 limits assumed): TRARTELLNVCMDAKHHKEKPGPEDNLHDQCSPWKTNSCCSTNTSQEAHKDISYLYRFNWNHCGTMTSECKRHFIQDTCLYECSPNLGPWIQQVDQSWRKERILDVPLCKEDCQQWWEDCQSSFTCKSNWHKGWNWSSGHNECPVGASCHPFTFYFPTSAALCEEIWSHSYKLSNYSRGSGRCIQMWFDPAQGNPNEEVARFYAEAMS
property_measured: binding result

INSERT INTO results (binder, value_measured) VALUES
  ('3H11-hFC1 (Fc fusion, human, not shown: a dimerising Fc or GST; small tags and cut ends, domain: Fc区段 (铰链区 Hinge, CH2和CH3区); VHH cloned into vector RJK-V4-hFC; also called VHH-hFc 3H11; 单域抗体3H11的Fc融合抗体) QVQLVESGGGSVQTGGSPRLSCAVSGHTYSRLSMGWFRQAPGKEREGVAGIYTGGPSGPMTYYADSVKGRFTISQDNAQRTVYLQMNSLKPEDTAMYYCAATPQFLIGSGLLRPDKYNSWGQGTQVTVSS', 'binds'),
  ('2E5-hFC1 (Fc fusion, human, not shown: a dimerising Fc or GST; small tags and cut ends, domain: Fc区段 (铰链区 Hinge, CH2和CH3区); VHH cloned into vector RJK-V4-hFC; also called VHH-hFc 2E5; 单域抗体2E5的Fc融合抗体) QVQLVESGGGSVQAGGSLRLSCAASGYPYHRVSMGWFRQAPGKEREGVAGIYTGGLYTGGSMTYYADSVKGRFTISQDNARNTVYLQMNSLKPEDTAMYYCAATPQFLIGSGLLRPDKYNSWGQGTQVTVSS', 'binds'),
  ('4E11-hFC1 (Fc fusion, human, not shown: a dimerising Fc or GST; small tags and cut ends, domain: Fc区段 (铰链区 Hinge, CH2和CH3区); VHH cloned into vector RJK-V4-hFC; also called VHH-hFc 4E11; 单域抗体4E11的Fc融合抗体) QVQLVESGGGSVQAGGSLRLSCAVSGYTYSSNSMGWFRQAPGKEREGVAAIYTGGGSTYYADSVKGRFTISQDNAKNTVYLQMNSLKPEDTAMYYCAAGGPTWYDGSWSRGDEYTYWGQGTQVTVSS', 'binds');
